Target: T1, neutrophil elastase (Homo sapiens, UniProt P08246)
T1 chain: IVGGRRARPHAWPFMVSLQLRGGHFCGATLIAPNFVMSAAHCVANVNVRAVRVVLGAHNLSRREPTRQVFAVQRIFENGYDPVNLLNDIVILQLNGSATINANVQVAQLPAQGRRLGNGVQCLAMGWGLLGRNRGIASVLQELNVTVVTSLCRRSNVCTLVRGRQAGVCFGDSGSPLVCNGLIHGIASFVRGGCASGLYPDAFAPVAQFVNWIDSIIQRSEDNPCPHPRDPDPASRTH
Assay: enzyme inhibition assay (chromogenic substrate, Cheng-Prusoff)
VALUE TYPE: pKi
Lab note: report pKi as minus log10 of the concentration in molar units, number only.

Entry under test: Agaphelin 1-58 (protein) DINSEMATCACQLIYRPVCASNNESYSNECVLKCASETPTGRSIGLHKVKDGNCNGEF . Its pKi was 8.04

Cited source for all entries: paper PMC4161438
